# measured_on: Helianthus annuus EPSPS, native, SEQ ID NO:9 (Helianthus annuus, UniProt A0A251S0N3)
# Sequence (A0A251S0N3 67-518): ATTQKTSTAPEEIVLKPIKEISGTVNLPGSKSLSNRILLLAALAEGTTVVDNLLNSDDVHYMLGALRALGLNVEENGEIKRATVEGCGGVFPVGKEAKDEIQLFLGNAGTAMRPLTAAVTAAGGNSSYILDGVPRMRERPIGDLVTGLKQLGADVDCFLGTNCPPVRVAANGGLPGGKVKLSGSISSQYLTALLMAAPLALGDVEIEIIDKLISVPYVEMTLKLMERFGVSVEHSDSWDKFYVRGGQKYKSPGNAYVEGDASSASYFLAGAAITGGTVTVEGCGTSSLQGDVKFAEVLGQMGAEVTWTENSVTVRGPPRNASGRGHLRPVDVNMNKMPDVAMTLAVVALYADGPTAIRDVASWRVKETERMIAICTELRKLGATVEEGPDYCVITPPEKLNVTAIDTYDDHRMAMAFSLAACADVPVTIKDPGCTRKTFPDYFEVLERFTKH
observed_property: Ki (nM)

> print(dat)
                                   compound  reported.value
1  O=C(O)CNCP(=O)(O)O [glyphosate, N-phosphonomethylglycine]             150
